- target_desc: Alpha-glucosidase MAL12 (Saccharomyces cerevisiae (strain ATCC 204508 / S288c), UniProt P53341)
- Sequence (P53341 whole entry): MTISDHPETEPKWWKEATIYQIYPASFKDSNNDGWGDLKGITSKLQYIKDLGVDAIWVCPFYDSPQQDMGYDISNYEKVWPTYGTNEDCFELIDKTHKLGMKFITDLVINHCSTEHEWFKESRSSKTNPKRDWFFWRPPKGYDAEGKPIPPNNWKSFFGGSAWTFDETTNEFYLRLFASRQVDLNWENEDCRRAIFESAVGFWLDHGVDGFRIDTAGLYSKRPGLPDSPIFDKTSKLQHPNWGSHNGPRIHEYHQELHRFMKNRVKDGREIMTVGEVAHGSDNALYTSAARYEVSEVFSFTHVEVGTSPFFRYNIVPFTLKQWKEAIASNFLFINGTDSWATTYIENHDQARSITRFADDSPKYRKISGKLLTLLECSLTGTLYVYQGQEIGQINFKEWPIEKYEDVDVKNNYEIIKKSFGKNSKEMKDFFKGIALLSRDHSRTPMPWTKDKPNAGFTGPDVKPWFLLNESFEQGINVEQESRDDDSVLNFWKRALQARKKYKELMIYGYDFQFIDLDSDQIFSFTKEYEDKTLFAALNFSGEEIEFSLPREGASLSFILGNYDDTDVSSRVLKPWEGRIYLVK
- protocol_details: Assay for α-Glucosidase Inhibitory Activity
Recorded IC50 for the following molecules
measure: IC50 (µM)

>>> assay_value("Cc1cccc2nc(-c3cccc(O)c3O)[nH]c12")
85.6
>>> assay_value("Cc1cccc2nc(-c3ccccc3Cl)[nH]c12")
5.3
>>> assay_value("Cc1cccc2nc(-c3ccc(O)cc3O)[nH]c12")
60.9
>>> assay_value("Cc1cccc2nc(-c3ccc(O)c(O)c3)[nH]c12")
25.4
>>> assay_value("Cc1cccc2nc(-c3ccc(F)cc3)[nH]c12")
136
>>> assay_value("Cc1cccc2nc(-c3ccccc3[N+](=O)[O-])[nH]c12")
44.6
>>> assay_value("Cc1cccc2nc(-c3cccc(O)c3)[nH]c12")
326
>>> assay_value("Cc1cccc2nc(-c3ccc(O)cc3)[nH]c12")
95.6
>>> assay_value("Cc1cccc2nc(-c3ccccc3F)[nH]c12")
34.4
>>> assay_value("Cc1cccc2nc(-c3ccccc3O)[nH]c12")
16.1
>>> assay_value("Cc1cccc2nc(-c3cccc(F)c3)[nH]c12")
165
>>> assay_value("COc1ccc(O)c(-c2nc3cccc(C)c3[nH]2)c1")
45.2
>>> assay_value("COc1ccc(-c2nc3cccc(C)c3[nH]2)c(O)c1")
29.8

---

- target_desc: Alpha-glucosidase MAL12 (Saccharomyces cerevisiae (strain ATCC 204508 / S288c))
- protocol_details: Assay for α-Glucosidase Inhibitory Activity
pIC50: −log10 of the molar value.
measure: pIC50

>>> assay_value("Cc1cccc2nc(-c3ccc(Cl)cc3)[nH]c12")
3.84
>>> assay_value("COc1ccc(-c2nc3cccc(C)c3[nH]2)cc1O")
3.65
>>> assay_value("Cc1cccc2nc(-c3ccncc3)[nH]c12")
3.14
>>> assay_value("Cc1cccc2nc(-c3cc(O)ccc3O)[nH]c12")
3.90

Numbers sourced from BindingDB's records for doi:10.1016/j.bioorg.2016.02.004.
